Molecular target: Flt-1 (Homo sapiens)
Construct: Kinases are expressed as either kinase domains or full length constructs; made in house
Sequence (P17948 27-1338, species assumed): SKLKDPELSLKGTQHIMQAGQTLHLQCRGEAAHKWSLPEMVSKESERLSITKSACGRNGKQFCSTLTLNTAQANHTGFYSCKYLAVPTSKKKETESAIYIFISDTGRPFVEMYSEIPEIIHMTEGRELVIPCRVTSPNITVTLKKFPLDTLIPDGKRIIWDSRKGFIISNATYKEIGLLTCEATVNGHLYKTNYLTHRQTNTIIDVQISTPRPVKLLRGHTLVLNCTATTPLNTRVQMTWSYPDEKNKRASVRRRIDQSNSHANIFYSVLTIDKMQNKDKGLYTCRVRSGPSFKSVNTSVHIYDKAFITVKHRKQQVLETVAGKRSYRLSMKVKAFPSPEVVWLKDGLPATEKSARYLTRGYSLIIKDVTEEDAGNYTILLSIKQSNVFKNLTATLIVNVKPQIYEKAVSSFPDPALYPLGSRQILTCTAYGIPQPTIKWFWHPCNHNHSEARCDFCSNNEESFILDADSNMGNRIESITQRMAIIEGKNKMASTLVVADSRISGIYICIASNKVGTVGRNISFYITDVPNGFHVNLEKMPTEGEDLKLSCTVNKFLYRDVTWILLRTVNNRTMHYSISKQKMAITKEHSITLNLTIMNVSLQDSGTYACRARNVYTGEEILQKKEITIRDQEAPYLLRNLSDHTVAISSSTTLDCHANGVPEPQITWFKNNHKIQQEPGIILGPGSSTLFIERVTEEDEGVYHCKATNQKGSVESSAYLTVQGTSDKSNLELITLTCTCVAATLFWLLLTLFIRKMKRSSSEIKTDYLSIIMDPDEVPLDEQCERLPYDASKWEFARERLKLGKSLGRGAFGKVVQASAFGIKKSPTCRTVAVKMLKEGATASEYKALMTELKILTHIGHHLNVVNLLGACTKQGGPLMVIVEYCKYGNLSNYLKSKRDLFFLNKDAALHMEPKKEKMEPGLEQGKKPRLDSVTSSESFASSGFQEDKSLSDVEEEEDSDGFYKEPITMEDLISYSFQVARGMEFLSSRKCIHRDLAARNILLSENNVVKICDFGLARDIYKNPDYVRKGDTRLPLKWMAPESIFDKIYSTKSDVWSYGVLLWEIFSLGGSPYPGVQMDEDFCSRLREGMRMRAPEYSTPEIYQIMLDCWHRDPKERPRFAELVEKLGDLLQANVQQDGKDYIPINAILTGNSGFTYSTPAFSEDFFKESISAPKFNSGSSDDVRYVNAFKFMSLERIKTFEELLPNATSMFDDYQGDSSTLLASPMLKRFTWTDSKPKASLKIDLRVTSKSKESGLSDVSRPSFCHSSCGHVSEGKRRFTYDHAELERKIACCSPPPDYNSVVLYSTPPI
Test: Kinase inhibition assay (33P transfer), Flt-1
Format: biochemical
Procedure: The inhibitor compounds described herein are screened in the following manner. […] Kinases are expressed as either kinase domains or full length constructs fused to glutathione S-transferase (GST) or polyHistidine tagged fusion proteins in either E. colior Baculovirus-High Five expression systems. […] Kinase activity and inhibition are measured essentially by established protocols (Braunwalder et al., 1996). […]
pIC50: −log10 of the molar value.
Consider the following molecules; for each one, report its pIC50.

query: # pIC50 lookup, item C#Cc1cccc(Nc2ncnc(Nc3ccc(OC)c(OC)c3)n2)c1 [Compound 116]
result: < 4.89

query: # pIC50 lookup, item COc1cc(Nc2ncnc(-n3c(NCc4ccccc4C)nc4ccccc43)n2)cc(OC)c1OC [Compound 511]
result: > 6.09

query: # pIC50 lookup, item CCOC(=O)Cc1cn(-c2ncnc(Nc3cc(OC)c(OC)c(OC)c3)n2)c2ccccc12 [Compound 411]
result: 5.29 to 6.06

----------
result-type: IC50

query: # get_value(readout= IC50, system= UniProt:P04626) for COc1cc(Nc2ncnc(Nc3ccc4[nH]ccc4c3)n2)cc(OC)c1OC [Compound 928]
Sequence (P04626 23-1255, species assumed): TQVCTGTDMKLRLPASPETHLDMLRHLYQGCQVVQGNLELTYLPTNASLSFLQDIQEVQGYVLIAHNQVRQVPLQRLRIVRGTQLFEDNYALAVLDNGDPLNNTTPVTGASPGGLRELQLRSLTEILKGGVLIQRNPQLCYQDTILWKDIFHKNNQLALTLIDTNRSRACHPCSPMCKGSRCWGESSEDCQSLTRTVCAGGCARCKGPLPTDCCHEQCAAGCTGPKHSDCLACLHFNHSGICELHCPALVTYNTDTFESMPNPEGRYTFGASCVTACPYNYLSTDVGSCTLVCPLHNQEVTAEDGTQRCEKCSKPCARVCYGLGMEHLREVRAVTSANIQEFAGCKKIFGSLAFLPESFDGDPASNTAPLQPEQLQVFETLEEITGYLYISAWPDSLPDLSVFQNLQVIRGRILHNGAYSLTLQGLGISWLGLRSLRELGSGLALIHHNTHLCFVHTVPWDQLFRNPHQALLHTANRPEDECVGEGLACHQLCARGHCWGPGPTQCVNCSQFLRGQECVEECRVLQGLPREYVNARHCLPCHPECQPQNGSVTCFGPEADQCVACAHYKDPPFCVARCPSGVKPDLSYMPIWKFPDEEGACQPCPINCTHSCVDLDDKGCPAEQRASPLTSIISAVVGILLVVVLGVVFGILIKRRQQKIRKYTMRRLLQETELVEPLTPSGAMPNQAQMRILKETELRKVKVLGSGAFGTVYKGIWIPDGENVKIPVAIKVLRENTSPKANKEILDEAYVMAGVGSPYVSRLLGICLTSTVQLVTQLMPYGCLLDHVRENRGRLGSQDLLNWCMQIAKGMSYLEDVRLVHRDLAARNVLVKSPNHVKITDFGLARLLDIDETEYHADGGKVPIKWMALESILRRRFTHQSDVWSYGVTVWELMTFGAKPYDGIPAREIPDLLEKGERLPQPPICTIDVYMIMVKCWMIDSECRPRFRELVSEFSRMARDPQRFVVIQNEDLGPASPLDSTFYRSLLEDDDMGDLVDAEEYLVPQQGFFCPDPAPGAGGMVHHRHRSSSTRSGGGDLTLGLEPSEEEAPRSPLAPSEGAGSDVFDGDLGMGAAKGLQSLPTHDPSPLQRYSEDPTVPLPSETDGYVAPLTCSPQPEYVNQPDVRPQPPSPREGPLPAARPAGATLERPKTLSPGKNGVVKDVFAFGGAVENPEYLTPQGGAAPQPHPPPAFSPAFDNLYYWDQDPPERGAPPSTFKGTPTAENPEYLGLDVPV
result: < 1.02 µM

query: # get_value(readout= IC50, system= UniProt:P04626) for COc1cc(Nc2ncnc(-c3cccnc3NC3CCN(Cc4ccccc4)CC3)n2)cc(OC)c1OC [Compound 847]
result: > 8.53 µM

query: # get_value(readout= IC50, system= UniProt:P04626) for COc1cc(Nc2ncnc(N3c4ccccc4CCC3C)n2)cc(OC)c1OC (stereo not shown) [Compound 612]
result: 0.982 to 5.89 µM

query: # get_value(readout= IC50, system= UniProt:P04626) for COc1cc(Nc2ncnc(-c3cccnc3N[C@@H](C)c3ccccc3)n2)cc(OC)c1OC [Compound 1111]
result: 5.23 to 7.63 µM

query: # get_value(readout= IC50, system= UniProt:P04626) for CN(c1ccc2c(cnn2Cc2ccccc2)c1)c1ncnc(Nc2cccc(Br)c2)n1 [Compound 667]
result: 0.822 to 4.93 µM

query: # get_value(readout= IC50, system= UniProt:P04626) for COc1cc(C)c(Nc2ncnc(Nc3cc(-c4ccccc4)n[nH]3)n2)cc1OC [Compound 978]
result: 0.991 to 5.95 µM

query: # get_value(readout= IC50, system= UniProt:P04626) for COc1cc(Nc2ncnc(Nc3cc(-c4ccc(C(N)=O)cc4)n[nH]3)n2)cc(OC)c1OC [Compound 642]
result: 0.865 to 5.19 µM

query: # get_value(readout= IC50, system= UniProt:P04626) for O=C(O)Cc1cccc(Nc2ncnc(-n3c(NCc4ccccc4)nc4ccccc43)n2)c1 [Compound 531]
result: < 0.886 µM

query: # get_value(readout= IC50, system= UniProt:P04626) for Cc1cccc(Nc2ncnc(Nc3ccc4c(cnn4Cc4ccccc4)c3)n2)c1 [Compound 553]
result: 0.982 to 5.89 µM

query: # get_value(readout= IC50, system= UniProt:P04626) for O=C(O)Cc1cccc(Nc2ncnc(Nc3ccc(Cl)cc3F)n2)c1 [Compound 968]
result: 6.42 to 9.36 µM

query: # get_value(readout= IC50, system= UniProt:P04626) for COc1ccc(Nc2ncnc(Nc3ccc(N4CCCCC4)cc3)n2)cc1OC [Compound 899]
result: 0.984 to 5.9 µM

query: # get_value(readout= IC50, system= UniProt:P04626) for COc1cc(Nc2ncnc(-n3c(NC(C)c4ccc(F)cc4)nc4ccccc43)n2)cc(OC)c1OC (stereo not shown) [Compound 605]
result: > 8.73 µM

query: # get_value(readout= IC50, system= UniProt:P04626) for COC(=O)c1ccc(-c2cc(Nc3ncnc(NCCc4c[nH]c5ccccc45)n3)[nH]n2)cc1 [Compound 806]
result: 0.88 to 5.28 µM

query: # get_value(readout= IC50, system= UniProt:P04626) for COc1cc(Nc2ncnc(N(C)c3ccc(F)c(Cl)c3)n2)cc(OC)c1OC [Compound 710]
result: < 0.953 µM

query: # get_value(readout= IC50, system= UniProt:P04626) for CCN(c1ncnc(Nc2cc(OC)c(OC)c(OC)c2)n1)c1cccc2ccccc12 [Compound 634]
result: 0.927 to 5.56 µM

query: # get_value(readout= IC50, system= UniProt:P04626) for COc1cc(Nc2ncnc(NCCc3ccccc3)n2)cc(OC)c1OC [Compound 628]
result: > 11.8 µM

query: # get_value(readout= IC50, system= UniProt:P04626) for O=C(O)Cc1cccc(Nc2ncnc(Nc3cc(-c4ccco4)n[nH]3)n2)c1 [Compound 983]
result: > 11.9 µM

query: # get_value(readout= IC50, system= UniProt:P04626) for CN(c1cccc(Cl)c1)c1ncnc(Nc2cccc(OC(F)(F)F)c2)n1 [Compound 875]
result: 1.01 to 6.06 µM

query: # get_value(readout= IC50, system= UniProt:P04626) for COC(=O)c1ccc(-c2cc(Nc3ncnc(Nc4cc(F)cc(F)c4)n3)[nH]n2)cc1 [Compound 810]
result: > 10.6 µM

query: # get_value(readout= IC50, system= UniProt:P04626) for COc1cc(Nc2ncnc(-n3c(NC4CCc5ccccc54)nc4ccccc43)n2)cc(OC)c1OC (stereo not shown) [Compound 1044]
result: 0.785 to 4.71 µM

query: # get_value(readout= IC50, system= UniProt:P04626) for c1ccc(Cn2ncc3cc(Nc4ncnc(Nc5ccc(N6CCCCC6)cc5)n4)ccc32)cc1 [Compound 735]
result: 0.839 to 5.04 µM

query: # get_value(readout= IC50, system= UniProt:P04626) for CN(c1cccc(Cl)c1)c1ncnc(Nc2cccc(CC(=O)O)c2)n1 [Compound 706]
result: < 1.08 µM

query: # get_value(readout= IC50, system= UniProt:P04626) for CCOC(=O)CNc1ncnc(N2CCCc3cc(C)ccc32)n1 [Compound 761]
result: > 13.7 µM

query: # get_value(readout= IC50, system= UniProt:P04626) for COc1ccc(Nc2ncnc(Nc3ccc4c(c3)C(=O)N(C)C4=O)n2)cc1OC [Compound 856]
result: 0.984 to 5.91 µM

query: # get_value(readout= IC50, system= UniProt:P04626) for COc1cc(Nc2ncnc(-c3cccnc3Nc3ccc4c(c3)CCC4)n2)cc(OC)c1OC [Compound 830]
result: > 9.56 µM

----------
Target: EGFR (Homo sapiens, UniProt P00533)
Construct: Kinases are expressed as either kinase domains or full length constructs; made in house
Sequence (P00533 25-1210, species assumed): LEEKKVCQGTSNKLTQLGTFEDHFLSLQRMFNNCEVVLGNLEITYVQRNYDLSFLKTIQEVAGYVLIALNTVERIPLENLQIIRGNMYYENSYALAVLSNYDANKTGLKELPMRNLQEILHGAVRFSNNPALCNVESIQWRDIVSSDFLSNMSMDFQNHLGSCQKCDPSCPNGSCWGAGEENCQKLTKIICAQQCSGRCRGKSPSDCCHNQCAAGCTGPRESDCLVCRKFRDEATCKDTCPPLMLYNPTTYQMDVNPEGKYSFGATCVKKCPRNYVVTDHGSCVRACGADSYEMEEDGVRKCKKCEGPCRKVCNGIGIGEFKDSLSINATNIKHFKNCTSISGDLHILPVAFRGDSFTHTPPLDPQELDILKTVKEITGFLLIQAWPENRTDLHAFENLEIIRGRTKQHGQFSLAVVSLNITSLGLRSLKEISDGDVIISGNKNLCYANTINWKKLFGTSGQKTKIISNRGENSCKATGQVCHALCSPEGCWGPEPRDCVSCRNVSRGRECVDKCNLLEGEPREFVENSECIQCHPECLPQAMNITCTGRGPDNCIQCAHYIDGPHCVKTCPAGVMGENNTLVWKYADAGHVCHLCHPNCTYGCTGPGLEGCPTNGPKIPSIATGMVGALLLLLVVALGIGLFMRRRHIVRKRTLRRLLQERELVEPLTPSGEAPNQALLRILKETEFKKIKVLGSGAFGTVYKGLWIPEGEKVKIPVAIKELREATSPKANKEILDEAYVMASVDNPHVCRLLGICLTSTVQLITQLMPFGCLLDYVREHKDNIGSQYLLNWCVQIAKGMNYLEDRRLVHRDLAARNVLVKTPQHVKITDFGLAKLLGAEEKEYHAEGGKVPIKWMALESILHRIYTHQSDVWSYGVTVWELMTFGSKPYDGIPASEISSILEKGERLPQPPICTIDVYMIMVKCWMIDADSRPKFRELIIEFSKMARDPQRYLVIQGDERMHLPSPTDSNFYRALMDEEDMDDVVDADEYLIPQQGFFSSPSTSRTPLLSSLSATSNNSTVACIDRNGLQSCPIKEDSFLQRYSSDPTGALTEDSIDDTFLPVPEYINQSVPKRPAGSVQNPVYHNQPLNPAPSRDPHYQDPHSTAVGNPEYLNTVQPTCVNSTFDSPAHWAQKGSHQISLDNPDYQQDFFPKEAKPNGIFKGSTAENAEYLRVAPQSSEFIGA
Assay: Kinase inhibition assay (33P transfer), EGFR
Format: biochemical
Details: Table 2, kinase inhibition class; read-out: EGFR-1
result-type: IC50

query: # get_value(readout= IC50, system= EGFR (Homo sapiens, UniProt P00533)) for COc1cc(Nc2ncnc(Nc3cc(-c4ccc(Cl)cc4)n[nH]3)n2)cc(OC)c1OC
result: 5.29 to 7.71 µM

query: # get_value(readout= IC50, system= EGFR (Homo sapiens, UniProt P00533)) for CC(C)(C)OC(=O)Nc1ccc(Nc2ncnc(-c3ccccc3)n2)cc1
result: > 12.4 µM

query: # get_value(readout= IC50, system= EGFR (Homo sapiens, UniProt P00533)) for Cc1ccc2c(c1)CCCN2c1ncnc(NCCc2cccnc2)n1
result: > 13 µM

query: # get_value(readout= IC50, system= EGFR (Homo sapiens, UniProt P00533)) for CC(C)(C)OC(=O)NCc1cccc(Nc2ncnc(Nc3cc(C(C)(C)C)n[nH]3)n2)c1
result: > 10.3 µM

query: # get_value(readout= IC50, system= EGFR (Homo sapiens, UniProt P00533)) for CN(c1cccc(Cl)c1)c1ncnc(-n2c(N)nc3ccccc32)n1
result: 1.14 to 6.82 µM

query: # get_value(readout= IC50, system= EGFR (Homo sapiens, UniProt P00533)) for COc1cc(Nc2ncnc(-c3cccc(Cl)c3)n2)cc(OC)c1OC
result: > 12.1 µM

query: # get_value(readout= IC50, system= EGFR (Homo sapiens, UniProt P00533)) for COc1cc(Nc2ncnc(Nc3ncnc4[nH]cnc34)n2)cc(OC)c1OC
result: > 11.4 µM

query: # get_value(readout= IC50, system= EGFR (Homo sapiens, UniProt P00533)) for COc1cc(Nc2ncnc(Nc3ccc(N)cc3)n2)cc(OC)c1OC
result: 1.09 to 6.51 µM

query: # get_value(readout= IC50, system= EGFR (Homo sapiens, UniProt P00533)) for O=c1[nH]c2ccccc2n1-c1ncnc(Nc2cccc(Cl)c2)n1
result: 7.08 to 10.3 µM

query: # get_value(readout= IC50, system= EGFR (Homo sapiens, UniProt P00533)) for COc1ccc(Nc2ncnc(-n3c(N)nc4ccccc43)n2)cc1
result: 7.2 to 10.5 µM

query: # get_value(readout= IC50, system= EGFR (Homo sapiens, UniProt P00533)) for COc1ccc(Nc2ncnc(-c3ccccc3)n2)cc1
result: > 16.2 µM

query: # get_value(readout= IC50, system= EGFR (Homo sapiens, UniProt P00533)) for O=c1[nH]c2ccccc2n1-c1ncnc(Nc2ccccc2[N+](=O)[O-])n1
result: > 12.9 µM

query: # get_value(readout= IC50, system= EGFR (Homo sapiens, UniProt P00533)) for COc1cc(Nc2ncnc(NCCc3ccccc3)n2)cc(OC)c1OC
result: 1.05 to 6.29 µM

query: # get_value(readout= IC50, system= EGFR (Homo sapiens, UniProt P00533)) for COc1cc(Nc2ncnc(NN3CCOCC3)n2)cc(OC)c1OC
result: > 12.4 µM

query: # get_value(readout= IC50, system= EGFR (Homo sapiens, UniProt P00533)) for COc1cc(Nc2ncnc(-n3c(NCc4ccc(Br)cc4)nc4ccccc43)n2)cc(OC)c1OC
result: > 8 µM

query: # get_value(readout= IC50, system= EGFR (Homo sapiens, UniProt P00533)) for c1ccc(CNc2nc3ccccc3n2-c2ncnc(Nc3cccc(Cc4nnn[nH]4)c3)n2)nc1
result: 0.839 to 5.04 µM

query: # get_value(readout= IC50, system= EGFR (Homo sapiens, UniProt P00533)) for COc1cc(Nc2ncnc(-n3c(=O)sc4cc(Br)ccc43)n2)cc(OC)c1OC
result: > 9.18 µM

query: # get_value(readout= IC50, system= EGFR (Homo sapiens, UniProt P00533)) for CN(c1cccc(Cl)c1)c1ncnc(Nc2ccc(CC(=O)O)cc2)n1
result: < 1.08 µM

query: # get_value(readout= IC50, system= EGFR (Homo sapiens, UniProt P00533)) for COc1cccc(Nc2ncnc(Nc3cc(-c4ccccc4)n[nH]3)n2)c1
result: 1.11 to 6.68 µM

query: # get_value(readout= IC50, system= EGFR (Homo sapiens, UniProt P00533)) for COc1cc(Nc2ncnc(-n3c(NCc4ccccn4)nc4ccccc43)n2)cc(OCCN2CCOCC2)c1OC
result: > 7.71 µM

query: # get_value(readout= IC50, system= EGFR (Homo sapiens, UniProt P00533)) for COc1cc(Nc2ncnc(-n3c(Nc4cccc5cccnc45)nc4ccccc43)n2)cc(OC)c1OC
result: > 8.64 µM

query: # get_value(readout= IC50, system= EGFR (Homo sapiens, UniProt P00533)) for COc1cc(Nc2ncnc(-c3ccc(NCCCN)nc3)n2)cc(OC)c1OC
result: > 10.9 µM

query: # get_value(readout= IC50, system= EGFR (Homo sapiens, UniProt P00533)) for CN1CCN(Cc2cccc(Nc3ncnc(Nc4cccc5ccccc45)n3)c2)CC1
result: > 10.6 µM

query: # get_value(readout= IC50, system= EGFR (Homo sapiens, UniProt P00533)) for COc1ccc(Nc2nc3ccccc3n2-c2ncnc(Nc3cc(OC)c(OC)c(OC)c3)n2)c(C)c1
result: > 8.76 µM

query: # get_value(readout= IC50, system= EGFR (Homo sapiens, UniProt P00533)) for CN(c1cccc(Cl)c1)c1ncnc(Nc2ncccn2)n1
result: < 1.27 µM
